Field: inhibition. Provide a value for each of the molecules that follow.
- run description: growth inhibition of non-replicating M. tuberculosis (AID 488890);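 note: plate controls were DMSO cells for no effect and high antibiotic wells for full effect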
- measurement setup: Mycobacterium tuberculosis non-replicating, at 25 µM, stronger effect = higher value
The campaign covered roughly 320,000 compounds. About 1,300 (0.41%) were called active. Not shown: some 3% with an inconclusive outcome. Only a sample is shown. Potency and affinity values are given separately.
Give bare numbers, in %.

Would you please look over these solved cases?
molecule | measurement name | value measured
CN(C(=O)COC(=O)c1ccc(Cl)cc1N)C1CCCCC1 | inhibition | 24.6
COC1CCCN(C(=O)c2ccc3oc(Cc4ccc(Cl)cc4)nc3c2)C1 (stereo unspecified) | inhibition | 23.6
CC(CCc1ccc(O)cc1)NC1c2ccccc2-c2ccccc21 (stereo unspecified) | inhibition | 43.3

Please state, for each entry, its recorded inhibition.
1. CCOC(=O)NC(CC(=O)O)c1ccc(OC)cc1 (stereo unspecified)
2. O=C(OCc1nnc(-c2ccccc2)o1)c1cccnc1Cl

a:
1: -4.02; 2: 6.83

Please state, for each entry, its recorded inhibition.
1. Oc1ccc(/C=N/Nc2ncc(Br)cn2)c(O)c1
2. Cc1cc(C(F)(F)F)nc(SCC(=O)c2cccc([N+](=O)[O-])c2)n1
3. COc1ccc(-n2cc(C(=O)c3cc4ccccc4oc3=O)c(C(C)=O)n2)cc1
4. Cc1ccccc1OCC(=O)NCCCNC(=O)c1cccnc1
5. CC(OC(=O)CCCSc1nc2ccccc2s1)C(=O)NC(N)=O (stereo unspecified)

a:
1: 57.8; 2: 14.9; 3: 19.3; 4: -5.91; 5: 68.6

Please state, for each entry, its recorded inhibition.
1. CC(=O)OCc1nc2ccccc2s1
2. Nc1ccc2oc(-c3ccccc3Cl)cc(=O)c2c1O

a:
1. -0.84
2. -0.76
